# credit: the supplement of paper PMC11208160

# EXPERIMENT_SUMMARY: recombinant barcode read abundance after kanamycin selection (control-corrected) (log10(CPM+1)); higher = more efficient recombination; sequences stand for … in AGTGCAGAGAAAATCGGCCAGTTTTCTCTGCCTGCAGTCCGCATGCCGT…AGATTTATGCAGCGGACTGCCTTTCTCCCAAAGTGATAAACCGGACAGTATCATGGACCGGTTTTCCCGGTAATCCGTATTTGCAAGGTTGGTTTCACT; site = the 11-nt target;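 further: IS621 recombinase and bridge RNA in Escherichia coli cells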
Please mark label 1 if the recorded recombinant barcode read abundance (log10) is equal to or greater than 0.07, and label 0 if it falls below.

Reference set (3 entries):
ATGCGAGCTTGGGTTCTAACCTGTTGCGG (site ATGCGAGCTCT) = label 1
CAAGATTCTTGGGTTCTAACCTGTTGCCT (site CGAGATTCTAG) = label 0
TGCGCCACTTGGGTTCTAACCTGTTGCCT (site TGCGCCACTAG) = label 1

Let's switch to this sequence now.
Evaluate TATACACCTTGGGTTCTAACCTGTTGCGT (site TATACACCTAC) : recombinant barcode read abundance (log10) at minimum 0.07?
label 1
